Listed here are molecules together with their documented normalized growth.
experiment-notes: chemical genetic growth profiling, strain panel (AID 1159580);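 further: tested at 20 µM; growth read once vehicle control cultures reached saturation at 30 °C; 1 = growth at the plate median or of vehicle wells; lower values mean less growth of the strain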
run-conditions: S. cerevisiae deletion strains, growth OD, locus YOR265W, strain rbl2, stronger effect = lower value
Screen size: about 5,500 compounds; about 2,000 (36%) were called active. Inconclusive results (about 18%) are left out. Some of the results follow.

molecule: NC1C[C@H]1c1ccccc1 (stereo not given in full)
normalized growth: 0.99

molecule: COc1cc(-c2oc3cc(O)ccc3c(=O)c2O)ccc1O
normalized growth: 0.968

molecule: CC[C@H]1CN2CCc3cc(OC)c(OC)cc3C2C[C@@H]1CC1NCCc2cc(OC)c(OC)cc21 (stereo not given in full)
normalized growth: 0.993

molecule: COc1cc2c(cc1O)CCNC2C (stereo not given)
normalized growth: 0.984

molecule: O=C1c2ccccc2C(=O)C1c1ccccc1
normalized growth: 0.995

molecule: CC(=O)OCC(=O)[C@@]12OC3(CCCC3)O[C@@H]1CC1C3CCC4=CC(=O)C=C[C@]4(C)[C@@]3(F)[C@@H](O)C[C@@]12C (stereo not given in full)
normalized growth: 1.02

molecule: Cc1onc(-c2c(Cl)cccc2Cl)c1C(=O)N[C@@H]1C(=O)N2[C@@H]1SC(C)(C)[C@@H]2C(=O)O
normalized growth: 0.985

molecule: O=C(O)c1cc(=O)c2c(Cl)cc(Cl)cc2[nH]1
normalized growth: 1.01

molecule: COc1ccc2c(c1)[C@]13CCCC[C@H]1[C@H](C2)N(C)CC3
normalized growth: 0.967

molecule: CN1CCN(CC(=O)N2c3ccccc3C(=O)Nc3cccnc32)CC1
normalized growth: 1.01

molecule: CCc1cccc2c3c([nH]c12)C(CC)(CC(=O)O)OCC3 (stereo not given)
normalized growth: 1

molecule: COC1(C)CCC2OC2(C)CCC2C1CC2(C)C (stereo not given)
normalized growth: 1.02

molecule: CC1(C)S[C@@H]2[C@H](NC(=O)[C@H](C(=O)O)c3cccs3)C(=O)N2[C@H]1C(=O)O
normalized growth: 0.998

molecule: Cc1c(NC(=O)c2cccnc2)c(=O)n(-c2ccccc2)n1C
normalized growth: 0.993

molecule: CC1(C)S[C@@H]2[C@H](NC(=O)Cc3ccccc3)C(=O)N2[C@H]1C(=O)O
normalized growth: 1.01

* * *

experiment-notes: chemical genetic growth profiling, strain panel (AID 1159580);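 further: tested at 20 µM; growth read once vehicle control cultures reached saturation at 30 °C; 1 = growth at the plate median or of vehicle wells; lower values mean less growth of the strain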
run-conditions: S. cerevisiae deletion strains, growth OD, locus YKR026C, strain gcn3, stronger effect = lower value
Screen size: about 5,500 compounds; about 2,000 (36%) were called active. Roughly 18% stayed inconclusive and do not appear here. The list shows a part of the results.

compound: COc1cc2c(cc1OC)[C@@]13CCN4CC5=CCOC6CC(=O)N2C1[C@H]6[C@H]5C[C@H]43 (some centres undefined)
normalized growth: 0.991

compound: CC(=O)OC[C@H]1O[C@@H](Oc2cc(OC(C)=O)c3c(=O)cc(-c4ccc(OC(C)=O)cc4)oc3c2)[C@H](OC(C)=O)[C@@H](OC(C)=O)[C@@H]1OC(C)=O
normalized growth: 0.977

compound: Cc1onc(-c2ccccc2)c1C(=O)NC1C(=O)N2[C@@H]1SC(C)(C)[C@@H]2C(=O)O (some centres undefined)
normalized growth: 1.02

compound: CC1(C)S[C@@H]2[C@H](NC(=O)[C@H](C(=O)O)c3cccs3)C(=O)N2[C@H]1C(=O)O
normalized growth: 0.991
